System: NCI-H2795 (Mesothelioma);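 note: after 72 h of two-drug dosing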
PROCEDURE DETAILS: Bliss excess, mean over the matrix (fraction); higher = more synergy
Could you please report measured Bliss excess for the items listed next?
One number for each entry.

Cc1c2c(nn1C)CSCc1cc(n(C)n1)CSc1cc(c3ccccc3c1)OCCCc1c(C(=O)O)n(C)c3c-2c(Cl)ccc13 [AZD5991] + CC1(C)CCC(CN2CCN(c3ccc(C(=O)NS(=O)(=O)c4ccc(NCC5CCOCC5)c([N+](=O)[O-])c4)c(Oc4cnc5[nH]ccc5c4)c3)CC2)=C(c2ccc(Cl)cc2)C1 [Venetoclax] (first compound max 1 µM, 7x7, partner max 1 µM)    -0.0423

Please go through the list and note Bliss excess for each molecule.
1. CN(CCO)CC[C@H](CSc1ccccc1)Nc1ccc(S(=O)(=O)NC(=O)c2ccc(N3CCC([C@@H](O)c4ccccc4-c4ccc(Cl)cc4)CC3)cc2)cc1S(=O)(=O)C(F)(F)F [AZD4320] + C[C@@H]1COCCN1C2=NC(=NC(=C2)C3(CC3)[S@](=N)(=O)C)C4=C5C=CNC5=NC=C4 [AZD6738] (first compound max 1 µM, 7x7, partner max 10 µM)
2. CN(CCO)CC[C@H](CSc1ccccc1)Nc1ccc(S(=O)(=O)NC(=O)c2ccc(N3CCC([C@@H](O)c4ccccc4-c4ccc(Cl)cc4)CC3)cc2)cc1S(=O)(=O)C(F)(F)F [AZD4320] + C[C@@H](Nc1cc(F)cc(F)c1)c1cc(C(=O)N(C)C)cc2c(=O)cc(N3CCOCC3)oc12 [AZD8186] (first compound max 1 µM, 7x7, partner max 3 µM)

1. 0.0173
2. 0.0426

Hello, the source for this data is the supplement of paper PMC11061612, in case you need it.
